Substrate: CCCCCCCCCCCCCCCC/C=C\OC[C@@H](O)COP(=O)([O-])OCC[N+](C)(C)C
RUN_DESCRIPTION: released choline by choline oxidase/peroxidase colorimetric assay, Michaelis-Menten fit
Type: biochemical, Thermocrispum sp. RD004668
RUN_PARAMETERS: pH 8.0, 50 °C, 1 min, 2 mM CaCl2, substrate micelles
EXPERIMENTAL_READOUT: kcat (s⁻¹)
Your answer should be a plain number; it is taken to be in s⁻¹.

Prompt: What measured kcat goes with LyPls-PLD (lysoplasmalogen-specific phospholipase D) (Thermocrispum sp. RD004668; W282G) (protein, recombinant from pET24/lpls-pld in E. coli BL21(DE3); purified on HisTrap HP) TTRTTDNPWLDARVLNMAHAGGENEAPANTLYAFKRAVKLGANMLELDVQSTKDDQLVVIHNATVDQTTDGTGKVRDLTFEQVHELDAAYNFIPGRHAVPGEPPESYPLRGVRTGEKKPPPGYQPSDFAIPKLADVLEAFPRTPINIEIKGTSDADIPSFLHNAKLLARLLKKTGRTDFIVTSFNDLAVAKFHLLAPDIPIAPGMAGLAAYFLLGVKPMHGTVALQIPVRYQGLEIATPEFIRRAHADGYAVHVGFSGTAPDDEATYNRIIDSCADGLMPAYPALLERILDERGIERPGRPGVDPCG ?
Completion: 10.5
